Origin of measurements: the supplement of paper PMC9170038

System: MS2 coat protein
assayRemarks: apparent KD of MS2 coat protein; designed switch direction (-1 OFF switch, 1 ON switch): 1; higher = weaker reporter binding
conditionDetails: input ligand: microRNA oligo, concentration not stated
Documented apparent KD of MS2 coat protein across a set of sequences
quantityName: apparent KD of MS2 coat protein

INSERT INTO assay_data (sequenceinput, testsystem, observedresult) VALUES
  ('GGAGCCAAGGCAGGAUAUUCAUACUAAUAACAUGAGGAUCACCCAUGUAAGGCCAGAAGGCCUUGGGAGAAGGGCCAUGGCUCG [Xeonanis - 13 mod3] (Eterna round: R96, puzzle: Same State NG 2)', 'MS2 coat protein', '57.1 nM'),
  ('UGGUACAUGGGAGGAUAUGGAGUGAUGACAUGAGGAUCACCCAUGUUAAAUAUGCCGAGAGGCAACUAGAAGGCCCAUGUACCU [JL SSNG1 3.98] (Eterna round: R96, puzzle: Same State NG 2)', 'MS2 coat protein', '298 nM'),
  ('GGAAAACAUGAGGAUCACCCAUGUGAAAACGUGGGAGGAUAUCGAUGGAAACCAUACUGUCGAGAAGGCCCAUGUC [EteRNA is fun!] (Eterna round: R96, puzzle: Same State 1)', 'MS2 coat protein', '41.8 nM'),
  ('AACAUGAGGAUCACCCAUGUAGAAAAGUGAGGCAGCUCAGGGAAGGAUAUGGUUGACACCCUCGACCAGAAGGUCCAAAAUAAA [Argeatonra] (Eterna round: R96, puzzle: Same State NG 3)', 'MS2 coat protein', '54.2 nM'),
  ('CCAACAUACAAUUUAAGAUCACAUGAGGAUCACCCAUGUAUGCAGGAUAUCAGCUCGUUUAGAGCUGAGAAGGGCAAUUUAAUU [SSNG3/1-A3] (Eterna round: R96, puzzle: Same State NG 3)', 'MS2 coat protein', '158 nM');
